ASSAY_TEXT: Thermodynamic solubility in PBS at pH 7.4 after 24 hrs by UPLC-MS analysis
Assay type: physicochemical
CONDITION_INFO: PBS, pH 7.4; read-out: Therm_solubility
# cutoff 60 µM applies to solubility thermodynamic at 24 h; >= gives 1 (yes), < gives 0 (no)

Some solved cases for reference:
{"SMILES_NOTATION": "C[C@@H]1CN([C@@H](C)CO)C(=O)c2cccc(NC(=O)Nc3ccnc4ccccc34)c2O[C@H]1CN(C)S(=O)(=O)c1ccc2c(c1)OCCO2", "LABEL": "0 (no)"}
{"SMILES_NOTATION": "C[C@@H]1CN([C@@H](C)CO)C(=O)c2cccc(NC(=O)N(C)c3cccc4ccccc34)c2O[C@H]1CN(C)S(=O)(=O)c1ccc2c(c1)OCCO2", "LABEL": "0 (no)"}

Test whether the molecule `C[C@@H]1CN([C@@H](C)CO)C(=O)c2cccc(NC(=O)Nc3cccc4ccncc34)c2O[C@H]1CN(C)S(=O)(=O)c1ccc2c(c1)OCCO2` records solubility thermodynamic at 24 h of 60 µM or higher.
1 (yes)

Form field: solubility thermodynamic at 24 h at least 60 µM? Entry: `C[C@@H]1CN([C@@H](C)CO)C(=O)c2cccc(NC(=O)Nc3cncc4ccccc34)c2O[C@H]1CN(C)S(=O)(=O)c1ccc2c(c1)OCCO2`
1 (yes)

Could you verify whether the entry `C[C@@H]1CN([C@@H](C)CO)C(=O)c2cccc(NC(=O)Nc3cccc4cccnc34)c2O[C@H]1CN(C)S(=O)(=O)c1ccc2c(c1)OCCO2` shows solubility thermodynamic at 24 h of no less than 60 µM?
0 (no)

###

ASSAY_TEXT: Cytoprotective activity in rat INS-1E cells assessed as suppression of cytokine-induced caspase-3/7 activation after 48 hrs by luminescence assay
Format: functional, cell-based
VALUE_KIND: pIC50
Numbers only, as −log10 of the molar value.

Count: 2. Required value per item: pIC50.
1. C[C@@H]1CN([C@@H](C)CO)C(=O)c2cccc(NC(=O)Nc3cncc4ccccc34)c2O[C@H]1CN(C)S(=O)(=O)c1ccc2c(c1)OCCO2
2. C[C@@H]1CN([C@@H](C)CO)C(=O)c2cccc(NC(=O)Nc3cccc4ccccc34)c2O[C@H]1CN(C)S(=O)(=O)c1ccc2c(c1)OCCO2

5.39
5.78

###

Provide the recorded solubility thermodynamic at 24 h for the entries that follow.
ASSAY_TEXT: Thermodynamic solubility in PBS at pH 7.4 after 24 hrs by UPLC-MS analysis
Type: physicochemical
CONDITION_INFO: PBS, pH 7.4; read-out: Therm_solubility
Numbers only, in µM.

Each molecule below has a reported value. Please supply its solubility thermodynamic at 24 h.
1. C[C@@H]1CN([C@@H](C)CO)C(=O)c2cccc(NC(=O)Nc3cccc4cnccc34)c2O[C@H]1CN(C)S(=O)(=O)c1ccc2c(c1)OCCO2
2. C[C@@H]1CN([C@@H](C)CO)C(=O)c2cccc(NC(=O)NCc3cccc4ccccc34)c2O[C@H]1CN(C)S(=O)(=O)c1ccc2c(c1)OCCO2
3. C[C@@H]1CN([C@@H](C)CO)C(=O)c2cccc(NC(=O)Nc3cccc4ncccc34)c2O[C@H]1CN(C)S(=O)(=O)c1ccc2c(c1)OCCO2

1. 60.5
2. 0.1
3. 138

Consider the molecule `C[C@@H]1CN([C@@H](C)CO)C(=O)c2cccc(NC(=O)Nc3nccc4ccccc34)c2O[C@H]1CN(C)S(=O)(=O)c1ccc2c(c1)OCCO2` and give its measured solubility thermodynamic at 24 h.
0.7

###

Task for the reader: assign each of the following compounds its reported IC50.
ASSAY_TEXT: Cytoprotective activity in rat INS-1E cells assessed as suppression of cytokine-induced caspase-3/7 activation after 48 hrs by luminescence assay
Format: functional, cell-based

{"SMILES_NOTATION": "C[C@@H]1CN([C@@H](C)CO)C(=O)c2cccc(NC(=O)NCc3cccc4ccccc34)c2O[C@H]1CN(C)S(=O)(=O)c1ccc2c(c1)OCCO2", "IC50": "> 20 µM"}

Below is a list of compounds. For each, state its recorded IC50.
1. C[C@@H]1CN([C@@H](C)CO)C(=O)c2cccc(NC(=O)Nc3nccc4ccccc34)c2O[C@H]1CN(C)S(=O)(=O)c1ccc2c(c1)OCCO2
2. C[C@@H]1CN([C@@H](C)CO)C(=O)c2cccc(NC(=O)Nc3cccc4cnccc34)c2O[C@H]1CN(C)S(=O)(=O)c1ccc2c(c1)OCCO2
3. C[C@@H]1CN([C@@H](C)CO)C(=O)c2cccc(NC(=O)Nc3cccc4ncccc34)c2O[C@H]1CN(C)S(=O)(=O)c1ccc2c(c1)OCCO2

1: 1.05 µM; 2: 4.65 µM; 3: 1.62 µM

###

Provide the reported IC50 of each item.
ASSAY_TEXT: Cytoprotective activity in rat INS-1E cells assessed as suppression of cytokine-induced caspase-3/7 activation after 48 hrs by luminescence assay
Type: functional, cell-based
Answers are plain numbers, in µM.

{"SMILES_NOTATION": "C[C@@H]1CN([C@@H](C)CO)C(=O)c2cccc(NC(=O)N(C)c3cccc4ccccc34)c2O[C@H]1CN(C)S(=O)(=O)c1ccc2c(c1)OCCO2", "UOM": "µM", "IC50": 4.74}

Okay, next one:
For the compound `C[C@@H]1CN([C@@H](C)CO)C(=O)c2cccc(NC(=O)Nc3cccc4cccnc34)c2O[C@H]1CN(C)S(=O)(=O)c1ccc2c(c1)OCCO2` , what IC50 is on record?
3.26
